Each entry below lists one item and its recorded selectivity ratio value.
# ASSAY_PROTOCOL: Selectivity index, ratio IC50 for antiproliferative activity against human WI-38 cells over IC50 for antiproliferative activity against human A549 cells
# Assay type: toxicity, cell-based
# PARTICULARS: WI-38 cells and A549 cells, read-out: Ratio IC50
MEASURED_METRIC: selectivity ratio

COMPOUND_STRUCTURE	MEASUREMENT
COC(=O)CSC(=S)N1CCN(C(=O)c2cc(O)c3c(c2)C(=O)c2cccc(O)c2C3=O)CC1	2
O=C1c2cccc(O)c2C(=O)c2c(O)cc(C(=O)N3CCN(C(=S)SCc4ccccc4)CC3)cc21	1
Nc1ccn([C@@H]2O[C@H](CO)[C@@H](O)[C@@H]2O)c(=O)n1	2
Cc1ccc(CSC(=S)N2CCN(C(=O)c3cc(O)c4c(c3)C(=O)c3cccc(O)c3C4=O)CC2)cc1	1
O=C(O)c1cc(O)c2c(c1)C(=O)c1cccc(O)c1C2=O	1
O=C1c2cccc(O)c2C(=O)c2c(O)cc(C(=O)N3CCN(C(=S)SCCCOc4ccccc4)CC3)cc21	1
O=C(CSC(=S)N1CCN(C(=O)c2cc(O)c3c(c2)C(=O)c2cccc(O)c2C3=O)CC1)OCc1ccccc1	3
CCOC(=O)CCCSC(=S)N1CCN(C(=O)c2cc(O)c3c(c2)C(=O)c2cccc(O)c2C3=O)CC1	5
O=C1c2cccc(O)c2C(=O)c2c(O)cc(C(=O)N3CCN(C(=S)SCc4ccc(C(F)(F)F)cc4)CC3)cc21	1
C=CCSC(=S)N1CCN(C(=O)c2cc(O)c3c(c2)C(=O)c2cccc(O)c2C3=O)CC1	3
O=C1c2cccc(O)c2C(=O)c2c(O)cc(C(=O)N3CCN(C(=S)SCc4ccc(F)cc4)CC3)cc21	3

These entries and their values trace back to ChEMBL document CHEMBL5108023.
